Here, each record is paired with measured inhibition data.
Molecular target: P2X purinoceptor 7 (Homo sapiens) (UniProt Q99572)
Sequence (whole entry): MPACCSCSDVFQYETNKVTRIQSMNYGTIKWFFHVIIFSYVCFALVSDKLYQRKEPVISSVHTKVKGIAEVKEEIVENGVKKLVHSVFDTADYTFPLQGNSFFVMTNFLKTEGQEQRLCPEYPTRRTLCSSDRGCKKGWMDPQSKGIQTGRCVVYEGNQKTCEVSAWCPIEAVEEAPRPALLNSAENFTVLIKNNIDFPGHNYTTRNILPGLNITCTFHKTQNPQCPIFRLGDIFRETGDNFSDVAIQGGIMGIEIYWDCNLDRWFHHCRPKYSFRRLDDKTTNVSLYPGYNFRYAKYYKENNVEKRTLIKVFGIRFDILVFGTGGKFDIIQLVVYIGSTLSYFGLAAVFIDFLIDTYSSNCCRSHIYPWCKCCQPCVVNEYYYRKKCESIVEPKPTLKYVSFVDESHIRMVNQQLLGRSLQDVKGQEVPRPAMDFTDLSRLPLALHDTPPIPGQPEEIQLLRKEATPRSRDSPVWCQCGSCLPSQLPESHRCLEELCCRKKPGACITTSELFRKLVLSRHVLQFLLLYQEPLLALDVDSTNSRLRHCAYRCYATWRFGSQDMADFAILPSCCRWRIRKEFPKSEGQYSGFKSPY
Assay: Antagonist activity at human P2X7 receptor expressed in HEK293 cells assessed as reduction in benzoyl-ATP-induced YO-PRO-1 dye uptake at 10 uM pre-incubated for 20 mins before YO-PRO-1 addition and measured after 25 mins by fluorescence plate reader analysis relative to control
Format: cell-based
Conditions: time 45.0 min

Would you please look over these solved cases?
{"columns": ["smiles_record", "reported_result"],
 "data": [
  ["CNc1nc(Cl)nc2c1ncn2S(=O)(=O)c1ccccc1Cl", "4%"],
  ["Cn1c(=O)c2c(ncn2S(=O)(=O)c2ccc(F)cc2F)n(C)c1=O", "7%"],
  ["COc1ncnc2c1ncn2C(=O)c1ccccc1Cl", "1%"]
]}

Answer with reported inhibition of `CNc1nc(Cl)nc2c1ncn2CC(=O)c1ccc(Cl)cc1Cl`
2%

Quickly give me recorded inhibition for `Cn1c(=O)c2c(ncn2S(=O)(=O)c2ccc(C(F)(F)F)cc2Cl)n(C)c1=O`
5%
